The reported numbers originate from ChEMBL document CHEMBL1121852.

Test Name: Tested for acute toxicity after administration of compound at 50 mg/kg intraperitoneally in mice
Format: organism-based
Set-up: dose 50 mg/kg, route intraperitoneal
Particulars: mouse, in vivo, ip
# strict inequality: LD50 < 500 mg/kg yields True, everything else yields False

{"Structure": "COc1ccc(CC(=O)O)cc1-c1ccc(Cl)cc1", "Assigned Class": "False"}

Does the reported LD50 of the following molecule sit strictly below 500 mg/kg? COc1ccc(-c2ccc(Cl)cc2)cc1CC(=O)O
False

Repeat for the following molecule: COc1cc(CC(=O)O)cc(-c2ccc(Cl)cc2)c1
False

Repeat for the following molecule: COc1cccc(CC(=O)O)c1-c1ccc(Cl)cc1
False

Repeat for the following molecule: COc1cc(CC(=O)O)ccc1-c1ccc(Cl)cc1
True

Repeat for the following molecule: COc1cccc(-c2ccc(Cl)cc2)c1CC(=O)O
True

Repeat for the following molecule: COc1cc(-c2ccc(Cl)cc2)ccc1CC(=O)O
True

Repeat for the following molecule: COc1ccc(CC(=O)O)c(-c2ccc(Cl)cc2)c1
False

Repeat for the following molecule: COc1c(CC(=O)O)cccc1-c1ccc(Cl)cc1
True

Repeat for the following molecule: COc1ccc(-c2ccc(Cl)cc2)c(CC(=O)O)c1
False
